- procedure_text: Acute toxicity in CFLP mice (Probite analysis according to Litchfield-Wilcoxon)
- conditions: mouse, in vivo, ip, read-out: LD50 ip

compound	LD50
Cc1cc(-c2ccccn2)nn1C[C@@H]1C=C2c3cccc4[nH]cc(c34)C[C@H]2N(C)C1 [Example 16]	> 100 mg/kg
Cc1nn(C[C@@H]2C=C3c4cccc5[nH]cc(c45)C[C@H]3N(C)C2)c2c1C(=NO)CC(C)(C)C2 [Example 11]	> 100 mg/kg
Cc1nn(C[C@@H]2C=C3c4cccc5[nH]cc(c45)C[C@H]3N(C)C2)c2c1CCC2 [Example 1]	3100 mg/kg
Cc1nn(C[C@@H]2C=C3c4cccc5c4c(cn5C)C[C@H]3N(C)C2)c2c1CCC2 [Example 2]	> 100 mg/kg
Cc1nn(C[C@@H]2C=C3c4cccc5[nH]cc(c45)C[C@H]3N(C)C2)c2c1C(=O)CC2 [Example 6]	> 200 mg/kg
Cc1nn(C[C@@H]2C=C3c4cccc5[nH]cc(c45)C[C@H]3N(C)C2)c2c1CCCC2 [Example 9]	> 100 mg/kg
Cc1nn(C[C@@H]2C=C3c4cccc5[nH]cc(c45)C[C@H]3N(C)C2)c2c1C(=NO)CC2 [Example 8]	> 100 mg/kg
Cc1cc(-c2ccccn2)nn1C[C@@H]1C[C@@H]2c3cccc4[nH]cc(c34)C[C@H]2N(C)C1 [Example 17]	> 100 mg/kg
